Each recorded value in this set is attributed to patent US20240400577A1.

system: CLK4 (Homo sapiens, UniProt Q9HAZ1)
Construct: purchased Nanosyn (contract screening)
Sequence (Q9HAZ1 whole entry): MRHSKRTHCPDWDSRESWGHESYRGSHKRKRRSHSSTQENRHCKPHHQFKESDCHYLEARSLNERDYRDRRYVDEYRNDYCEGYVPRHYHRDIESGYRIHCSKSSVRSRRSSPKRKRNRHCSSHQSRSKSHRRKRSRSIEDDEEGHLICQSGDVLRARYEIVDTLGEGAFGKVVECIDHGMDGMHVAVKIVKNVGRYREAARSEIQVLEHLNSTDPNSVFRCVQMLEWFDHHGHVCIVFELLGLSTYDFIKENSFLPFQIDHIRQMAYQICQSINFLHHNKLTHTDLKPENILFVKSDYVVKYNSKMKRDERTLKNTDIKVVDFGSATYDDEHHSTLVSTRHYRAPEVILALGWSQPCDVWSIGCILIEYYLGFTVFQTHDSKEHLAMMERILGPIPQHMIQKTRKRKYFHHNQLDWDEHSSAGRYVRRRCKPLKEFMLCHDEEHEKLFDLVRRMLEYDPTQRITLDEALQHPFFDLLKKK
assay-procedure: Kinase panel enzymatic inhibition assay (Nanosyn)
Format: biochemical
measurement-parameters: compound 5 μM; ATP at Km; 30-minute pre-incubation
Exercise: for every item that follows, state its recorded inhibition at 5 µM.

Observed inhibition at 5 µM, CLK4 (Homo sapiens, UniProt Q9HAZ1), `CSc1cc(C(=O)Nc2cc(Oc3ccnc(C(=O)NC4CNC4)c3)ccc2F)nn1-c1ccc(F)cc1` : 80 to 89%

GET /values?item= `CNC(=O)c1cc(Oc2ccc(NC(=O)c3cc(S(C)(=O)=O)n(-c4ccc(F)cc4)n3)c(F)c2)ccn1` &system= CLK4 (Homo sapiens, UniProt Q9HAZ1) returns inhibition at 5 µM: < 79%

Record for Cc1ccc(NC(=O)c2cc([S+](C)[O-])n(-c3ccc(F)cc3)n2)cc1Nc1ccc2ncn(C)c(=O)c2c1 (stereo not drawn) under target or system CLK4 (Homo sapiens, UniProt Q9HAZ1): inhibition at 5 µM reported as < 79%

inhibition at 5 µM for CLK4 (Homo sapiens, UniProt Q9HAZ1) with input `CCOC(=O)Nc1cn2nc(Nc3cc(NC(=O)c4cc(S(C)(=O)=O)n(-c5ccc(F)cc5)n4)ccc3C)ccc2n1` equals < 79%

Here CNC(=O)c1cc(Oc2ccc(F)c(NC(=O)c3cc([S+](C)[O-])n(-c4ccc(F)cc4)n3)c2)ccn1 (stereo not drawn) was tested on CLK4 (Homo sapiens, UniProt Q9HAZ1), and its inhibition at 5 µM came to < 79%

The compound Cc1ccc(NC(=O)c2cc([S+](C)[O-])n(-c3ccc(F)cc3)n2)cc1-c1cc(OCCO)nc(N2CCOCC2)c1 (stereo not drawn) , when measured on CLK4 (Homo sapiens, UniProt Q9HAZ1), yielded inhibition at 5 µM of < 79%

----------
system: LYNb (Homo sapiens)
Construct: purchased Nanosyn (contract screening)
Sequence (P07948 1-491 isoform P07948-2): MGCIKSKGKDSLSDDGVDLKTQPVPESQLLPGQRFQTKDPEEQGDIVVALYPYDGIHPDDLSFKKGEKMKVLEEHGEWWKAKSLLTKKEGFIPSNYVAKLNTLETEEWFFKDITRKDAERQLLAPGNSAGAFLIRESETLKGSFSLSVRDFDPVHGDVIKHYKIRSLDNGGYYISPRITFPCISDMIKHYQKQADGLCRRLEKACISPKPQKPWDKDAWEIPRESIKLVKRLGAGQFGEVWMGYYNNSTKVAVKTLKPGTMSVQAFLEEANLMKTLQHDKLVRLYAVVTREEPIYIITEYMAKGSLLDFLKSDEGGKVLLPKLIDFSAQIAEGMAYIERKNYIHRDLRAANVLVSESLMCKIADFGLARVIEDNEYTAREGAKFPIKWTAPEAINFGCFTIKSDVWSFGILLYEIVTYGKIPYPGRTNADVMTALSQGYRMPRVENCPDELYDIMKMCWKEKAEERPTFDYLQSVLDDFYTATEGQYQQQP
assay-procedure: Kinase panel enzymatic inhibition assay (Nanosyn)
Format: biochemical
measurement-parameters: compound 5 μM; ATP at Km; 30-minute pre-incubation
Kindly state inhibition at 5 µM for each of the entries shown.

The molecule `Cc1ccc(NC(=O)c2cc(S(C)(=O)=O)n(-c3ccc(F)cc3)n2)cc1Nc1nccc(-c2cccnc2N)n1` showed inhibition at 5 µM equal to ≥ 95%

Form field inhibition at 5 µM, entry CNC(=O)c1cc(Oc2ccc(F)c(NC(=O)c3cc([S+](C)[O-])n(-c4ccc(F)cc4)n3)c2)ccn1 (stereo not shown) : < 79%

Entry `Cc1ccc(NC(=O)c2cc(S(C)(=O)=O)n(-c3ccc(F)cc3)n2)cc1-c1cc(OCCO)nc(N2CCOCC2)c1` , inhibition at 5 µM reported as < 79%

Entry `Cc1ccc(NC(=O)c2cc(S(C)(=O)=O)n(-c3ccc(F)cc3)n2)cc1-c1cc(N2CCOCC2)c(=O)n(C)c1` ; inhibition at 5 µM = < 79%

----------
system: CSF1R (Homo sapiens, UniProt P07333)
Construct: purchased Nanosyn (contract screening)
Sequence (P07333 20-972): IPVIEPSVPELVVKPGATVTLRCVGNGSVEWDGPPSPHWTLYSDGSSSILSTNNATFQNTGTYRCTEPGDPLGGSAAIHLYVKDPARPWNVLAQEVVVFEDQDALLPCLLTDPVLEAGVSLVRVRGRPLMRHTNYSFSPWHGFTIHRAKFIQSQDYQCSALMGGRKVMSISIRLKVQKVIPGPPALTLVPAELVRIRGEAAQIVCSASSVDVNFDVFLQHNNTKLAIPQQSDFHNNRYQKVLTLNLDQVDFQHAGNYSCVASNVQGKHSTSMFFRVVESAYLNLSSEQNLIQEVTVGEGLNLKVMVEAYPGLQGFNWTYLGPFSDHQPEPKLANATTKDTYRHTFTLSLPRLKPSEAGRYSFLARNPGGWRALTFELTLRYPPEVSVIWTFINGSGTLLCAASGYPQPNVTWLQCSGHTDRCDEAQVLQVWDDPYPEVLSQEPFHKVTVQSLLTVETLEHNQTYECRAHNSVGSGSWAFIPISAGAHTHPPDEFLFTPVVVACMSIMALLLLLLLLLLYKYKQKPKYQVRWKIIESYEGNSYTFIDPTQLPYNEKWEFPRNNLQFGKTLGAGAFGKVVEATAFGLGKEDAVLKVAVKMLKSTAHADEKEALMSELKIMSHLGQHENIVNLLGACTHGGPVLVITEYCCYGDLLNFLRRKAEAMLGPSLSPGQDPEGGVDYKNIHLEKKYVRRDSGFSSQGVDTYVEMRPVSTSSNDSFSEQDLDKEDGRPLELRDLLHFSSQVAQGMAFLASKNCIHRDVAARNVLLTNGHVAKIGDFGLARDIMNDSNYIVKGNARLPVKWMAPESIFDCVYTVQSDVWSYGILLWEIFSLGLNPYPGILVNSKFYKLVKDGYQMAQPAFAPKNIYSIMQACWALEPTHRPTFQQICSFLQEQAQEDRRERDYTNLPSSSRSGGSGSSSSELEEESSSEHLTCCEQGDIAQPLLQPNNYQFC
assay-procedure: Kinase panel enzymatic inhibition assay (Nanosyn)
Assay type: biochemical
measurement-parameters: compound 5 μM; ATP at Km; 30-minute pre-incubation
measurement-label: inhibition at 5 µM

# inhibition at 5 µM of Cc1ccc(NC(=O)c2cc([S+](C)[O-])n(-c3ccc(F)cc3)n2)cc1-c1cc(N2CCOCC2)c(=O)n(C)c1 (stereo not shown) = < 79%

inhibition at 5 µM recorded for this molecule, Cc1ccc(NC(=O)c2cc([S+](C)[O-])n(-c3ccc(F)cc3)n2)cc1C#Cc1cnc2cccnn12 (stereo not shown) , is 90 to 94%

Reported inhibition at 5 µM of `Cc1ccc(NC(=O)c2cc(S(C)(=O)=O)n(-c3ccc(F)cc3)n2)cc1Nc1ccc2ncn(C)c(=O)c2c1` : < 79%

Record CCOC(=O)Nc1cn2nc(Nc3cc(NC(=O)c4cc([S+](C)[O-])n(-c5ccc(F)cc5)n4)ccc3C)ccc2n1 (stereo not shown) . Reported inhibition at 5 µM: 80 to 89%

----------
So I've got a bunch of compounds here, and I need their inhibition at 5 µM values.
system: BLK (Homo sapiens, UniProt P51451)
Construct: purchased Nanosyn (contract screening)
Sequence (P51451 whole entry): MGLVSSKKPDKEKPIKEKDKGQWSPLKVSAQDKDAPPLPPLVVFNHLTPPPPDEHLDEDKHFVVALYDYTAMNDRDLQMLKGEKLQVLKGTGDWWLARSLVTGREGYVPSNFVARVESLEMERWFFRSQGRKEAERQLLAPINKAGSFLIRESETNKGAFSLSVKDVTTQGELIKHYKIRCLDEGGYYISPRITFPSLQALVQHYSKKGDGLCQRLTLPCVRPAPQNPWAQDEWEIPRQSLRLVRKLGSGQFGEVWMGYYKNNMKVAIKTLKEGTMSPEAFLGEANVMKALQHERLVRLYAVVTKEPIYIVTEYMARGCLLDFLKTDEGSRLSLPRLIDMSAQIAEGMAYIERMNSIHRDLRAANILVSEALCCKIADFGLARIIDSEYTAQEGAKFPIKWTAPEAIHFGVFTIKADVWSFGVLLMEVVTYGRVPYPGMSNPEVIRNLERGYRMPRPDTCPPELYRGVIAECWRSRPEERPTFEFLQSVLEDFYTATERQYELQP
assay-procedure: Kinase panel enzymatic inhibition assay (Nanosyn)
Format: biochemical
measurement-parameters: compound 5 μM; ATP at Km; 30-minute pre-incubation

inhibition at 5 µM reported for this compound Cc1ccc(NC(=O)c2cc([S+](C)[O-])n(-c3ccc(F)cc3)n2)cc1C#Cc1cnc2cccnn12 (stereo not drawn) : 80 to 89%

Lab note: measured inhibition at 5 µM of CNC(=O)c1cc(Oc2ccc(F)c(NC(=O)c3cc([S+](C)[O-])n(-c4ccc(F)cc4)n3)c2)ccn1 (stereo not drawn) was < 79%

Cc1ccc(NC(=O)c2cc([S+](C)[O-])n(-c3ccc(F)cc3)n2)cc1-c1cc(N2CCOCC2)c(=O)n(C)c1 (stereo not drawn) has a reported inhibition at 5 µM of < 79%

----------
system: Abl2 (Homo sapiens, UniProt P42684)
Construct: purchased Nanosyn (contract screening)
Sequence (P42684 whole entry): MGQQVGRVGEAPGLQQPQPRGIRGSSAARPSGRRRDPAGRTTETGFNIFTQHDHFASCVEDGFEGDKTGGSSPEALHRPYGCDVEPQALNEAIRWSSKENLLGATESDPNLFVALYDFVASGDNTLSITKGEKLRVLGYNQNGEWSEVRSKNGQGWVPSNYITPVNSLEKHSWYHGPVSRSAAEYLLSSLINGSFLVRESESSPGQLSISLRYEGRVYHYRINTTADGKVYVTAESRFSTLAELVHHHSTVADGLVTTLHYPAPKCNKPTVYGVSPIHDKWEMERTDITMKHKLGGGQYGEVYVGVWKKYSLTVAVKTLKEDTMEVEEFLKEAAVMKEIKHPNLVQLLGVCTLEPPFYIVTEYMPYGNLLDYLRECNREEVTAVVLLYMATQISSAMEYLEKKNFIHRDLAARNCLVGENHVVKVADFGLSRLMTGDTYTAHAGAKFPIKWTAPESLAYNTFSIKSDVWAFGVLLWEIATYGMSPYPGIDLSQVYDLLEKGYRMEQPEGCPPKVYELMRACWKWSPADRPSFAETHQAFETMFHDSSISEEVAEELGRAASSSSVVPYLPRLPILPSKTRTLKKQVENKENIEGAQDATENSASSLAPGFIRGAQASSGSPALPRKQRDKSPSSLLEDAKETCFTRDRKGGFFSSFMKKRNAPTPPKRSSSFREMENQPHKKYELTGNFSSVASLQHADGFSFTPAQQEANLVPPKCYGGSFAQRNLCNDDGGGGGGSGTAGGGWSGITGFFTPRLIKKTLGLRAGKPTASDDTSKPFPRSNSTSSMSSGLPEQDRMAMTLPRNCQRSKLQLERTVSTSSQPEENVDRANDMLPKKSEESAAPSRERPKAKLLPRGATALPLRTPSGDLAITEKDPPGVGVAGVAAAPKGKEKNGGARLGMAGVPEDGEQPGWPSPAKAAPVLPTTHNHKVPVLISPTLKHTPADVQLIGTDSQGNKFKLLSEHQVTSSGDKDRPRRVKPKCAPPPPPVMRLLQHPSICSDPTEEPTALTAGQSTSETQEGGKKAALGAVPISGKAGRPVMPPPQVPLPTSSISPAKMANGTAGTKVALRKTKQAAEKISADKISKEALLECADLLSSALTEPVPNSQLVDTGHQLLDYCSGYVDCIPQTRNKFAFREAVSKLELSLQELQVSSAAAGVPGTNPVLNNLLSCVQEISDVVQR
assay-procedure: Kinase panel enzymatic inhibition assay (Nanosyn)
Type: biochemical
measurement-parameters: compound 5 μM; ATP at Km; 30-minute pre-incubation
Give measured inhibition at 5 µM for each item. Keep answers brief.

Lab note: compound `CSc1cc(C(=O)Nc2cc(Oc3ccnc(C(=O)NC4CNC4)c3)ccc2F)nn1-c1ccc(F)cc1` tested on Abl2 (Homo sapiens, UniProt P42684); recorded inhibition at 5 µM was < 79%

The compound `Cc1ccc(NC(=O)c2cc(S(C)(=O)=O)n(-c3ccc(F)cc3)n2)cc1-c1cc(N2CCOCC2)c(=O)n(C)c1` , when measured on Abl2 (Homo sapiens, UniProt P42684), yielded inhibition at 5 µM of < 79%

// assay Abl2 (Homo sapiens, UniProt P42684), entry `Cc1ccc(NC(=O)c2cc(S(C)(=O)=O)n(-c3ccc(F)cc3)n2)cc1-c1cc(OCCO)nc(N2CCOCC2)c1` , inhibition at 5 µM value = < 79%

----------
system: TAOK2 (Homo sapiens, UniProt Q9UL54)
Construct: Nanosyn (contract laboratory that ran the panel)
Sequence (Q9UL54 whole entry): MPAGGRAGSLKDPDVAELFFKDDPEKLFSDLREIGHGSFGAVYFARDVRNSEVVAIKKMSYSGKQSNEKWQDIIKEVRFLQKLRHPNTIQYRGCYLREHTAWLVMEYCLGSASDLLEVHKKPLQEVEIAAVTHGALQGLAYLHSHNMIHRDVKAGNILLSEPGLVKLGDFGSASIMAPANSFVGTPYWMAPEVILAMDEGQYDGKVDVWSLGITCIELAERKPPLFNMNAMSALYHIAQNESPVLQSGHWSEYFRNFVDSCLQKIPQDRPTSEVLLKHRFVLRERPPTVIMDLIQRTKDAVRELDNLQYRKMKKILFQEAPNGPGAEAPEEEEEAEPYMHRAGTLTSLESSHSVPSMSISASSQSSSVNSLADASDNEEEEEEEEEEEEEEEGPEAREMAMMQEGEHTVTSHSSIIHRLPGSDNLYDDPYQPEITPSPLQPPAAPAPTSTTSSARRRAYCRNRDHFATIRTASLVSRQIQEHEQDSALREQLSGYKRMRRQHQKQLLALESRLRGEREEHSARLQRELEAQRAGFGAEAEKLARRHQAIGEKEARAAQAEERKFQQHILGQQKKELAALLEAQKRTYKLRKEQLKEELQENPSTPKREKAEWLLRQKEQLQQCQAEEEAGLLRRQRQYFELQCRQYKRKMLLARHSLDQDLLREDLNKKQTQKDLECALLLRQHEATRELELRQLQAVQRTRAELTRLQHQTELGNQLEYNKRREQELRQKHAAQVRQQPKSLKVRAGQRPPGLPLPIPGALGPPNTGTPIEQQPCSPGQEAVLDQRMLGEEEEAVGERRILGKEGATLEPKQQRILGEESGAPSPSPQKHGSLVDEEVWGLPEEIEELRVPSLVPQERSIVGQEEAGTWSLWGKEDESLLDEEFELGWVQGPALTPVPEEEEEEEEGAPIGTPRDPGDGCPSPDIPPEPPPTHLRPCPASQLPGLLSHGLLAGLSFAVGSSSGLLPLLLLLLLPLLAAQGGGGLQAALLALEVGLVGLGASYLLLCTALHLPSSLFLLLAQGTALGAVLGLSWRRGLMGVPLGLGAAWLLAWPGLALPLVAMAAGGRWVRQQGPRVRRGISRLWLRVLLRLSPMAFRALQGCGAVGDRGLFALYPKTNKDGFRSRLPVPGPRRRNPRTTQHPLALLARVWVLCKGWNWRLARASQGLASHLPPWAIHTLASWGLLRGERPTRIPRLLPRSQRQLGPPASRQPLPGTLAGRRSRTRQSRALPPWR
assay-procedure: Kinase panel enzymatic inhibition assay (Nanosyn)
Format: biochemical
measurement-parameters: compound 5 μM; ATP at Km; 30-minute pre-incubation
measurement-label: inhibition at 5 µM

Reported inhibition at 5 µM of CSc1cc(C(=O)Nc2cc(Oc3ccnc(C(=O)NC4CNC4)c3)ccc2F)nn1-c1ccc(F)cc1 [Ex8] : < 79%

inhibition at 5 µM recorded for this molecule, Cc1ccc(NC(=O)c2cc([S+](C)[O-])n(-c3ccc(F)cc3)n2)cc1-c1cc(OCCO)nc(N2CCOCC2)c1 (stereo not shown) [Ex10] , is 90 to 94%

Kindly note the recorded inhibition at 5 µM for Cc1ccc(NC(=O)c2cc(S(C)(=O)=O)n(-c3ccc(F)cc3)n2)cc1-c1cc(N2CCOCC2)c(=O)n(C)c1 [Ex12] , which is 80 to 89%

Cc1ccc(NC(=O)c2cc(S(C)(=O)=O)n(-c3ccc(F)cc3)n2)cc1Nc1ccc2ncn(C)c(=O)c2c1 [Ex4] yielded inhibition at 5 µM of < 79%
